B1: Ankyrin-2, residues 3571 to 3650; numbered along this chain, Q01484 (parent)
chain: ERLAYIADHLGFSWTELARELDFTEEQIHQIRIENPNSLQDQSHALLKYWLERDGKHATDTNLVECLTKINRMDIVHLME

Variants of: B1
Assay: abundance fitness (aPCA) (normalised: wild type 0, dead -1); higher = more abundant; growth selection in yeast, the domain comes from the species named
Conditions: Homo sapiens
Short version: abundance fitness at least -0.04 is T, less is F.

// below: answered variants
| variant-string | discrete-label |
| --- | --- |
| D54L | T |
| E52R | F |

Request: Identify whether the reported abundance fitness of the following variant is -0.04 or greater: W14A
Response: F

Request: Quick check, abundance fitness >= -0.04? E34L
Response: F

Request: Exam item: decide whether the reported abundance fitness for S43W is at least -0.04.
Response: F

Request: Exam item: decide whether the reported abundance fitness for Q40I is at least -0.04.
Response: F

Request: Reported abundance fitness reaches at least -0.04 for L39E ?
Response: T
